Numbers sourced from the supplement of paper PMC10065799.

Target: FGFR3 (UniProt P22607)
Sequence (P22607 whole entry, looked up): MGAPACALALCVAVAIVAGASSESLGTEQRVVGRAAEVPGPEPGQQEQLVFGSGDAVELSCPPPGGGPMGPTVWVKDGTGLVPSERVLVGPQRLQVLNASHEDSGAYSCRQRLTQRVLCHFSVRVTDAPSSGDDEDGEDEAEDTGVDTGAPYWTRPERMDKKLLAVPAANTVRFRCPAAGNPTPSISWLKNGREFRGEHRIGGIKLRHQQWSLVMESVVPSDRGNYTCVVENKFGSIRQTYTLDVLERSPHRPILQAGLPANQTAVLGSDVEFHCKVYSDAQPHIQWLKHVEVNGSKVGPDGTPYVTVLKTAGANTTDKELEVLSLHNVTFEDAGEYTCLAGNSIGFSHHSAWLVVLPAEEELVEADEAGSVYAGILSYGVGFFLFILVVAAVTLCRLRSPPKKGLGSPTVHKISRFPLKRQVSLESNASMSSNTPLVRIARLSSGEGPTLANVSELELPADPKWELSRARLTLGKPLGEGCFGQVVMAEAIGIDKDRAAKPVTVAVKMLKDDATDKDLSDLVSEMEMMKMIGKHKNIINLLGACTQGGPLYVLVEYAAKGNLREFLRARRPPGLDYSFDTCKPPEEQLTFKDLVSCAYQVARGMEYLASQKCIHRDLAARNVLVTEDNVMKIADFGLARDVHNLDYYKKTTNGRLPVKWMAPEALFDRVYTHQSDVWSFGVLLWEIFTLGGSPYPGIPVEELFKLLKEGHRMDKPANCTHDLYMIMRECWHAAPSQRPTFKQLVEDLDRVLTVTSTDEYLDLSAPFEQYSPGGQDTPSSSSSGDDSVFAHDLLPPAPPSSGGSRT
Experiment: phosphorylation enrichment, bacterial display (enrichment ratio); higher = better substrate or ligand; peptides without Tyr show the background
Below, each entry is listed with its recorded phosphorylation enrichment.
Lab note: record just the number, no unit beside it.

IEEGTYGVAYR [CDK11B_Y449_V452A]; 0.635

Print FGFR3 (UniProt P22607) phosphorylation enrichment for NRLNDYIFSFD [RARS1_Y516] .
0.729

Print FGFR3 (UniProt P22607) phosphorylation enrichment for HPFHVYPQPGM [BAG3_Y114] .
0.998

Print FGFR3 (UniProt P22607) phosphorylation enrichment for PPGRSYSPCDY [TNS1_Y793_Y796C] .
0.799

Print FGFR3 (UniProt P22607) phosphorylation enrichment for SVVVPYEPREV [TP53_Y220_P223R] .
0.597

Print FGFR3 (UniProt P22607) phosphorylation enrichment for ASFSLYEPAKM [MKI67_Y340_P338S] .
0.563

---

Test system: c-Abl (mouse)
Assay: phosphorylation enrichment, bacterial display (enrichment ratio); higher = better substrate or ligand; peptides without Tyr show the background
Below, each entry is listed with its recorded phosphorylation enrichment.

These recorded examples may help you get a feel for the data.
RAEIVYKSPVV [MAPT_Y711_G706R]; 16.4
QPGTDYKIYRY [FN1_Y1970_L1974R]; 0.742
ALWFIYLHTRS [ENG_Y614_S615L_YF]; 0.979
FFSSEYHCVGG [CTSC_Y345_Y347C_YF]; 1.88
LFDHIYTTQSD [RET_Y928]; 0.821
MGHVNYGAYIN [GLB1_Y485_R482H]; 0.571

Next item in the queue.
Write down phosphorylation enrichment measured for item CTIIHYNYMCN [TP53_Y234_T231I]
0.534

---

Target: EPHB1 (UniProt P54762)
Sequence (P54762 whole entry, looked up): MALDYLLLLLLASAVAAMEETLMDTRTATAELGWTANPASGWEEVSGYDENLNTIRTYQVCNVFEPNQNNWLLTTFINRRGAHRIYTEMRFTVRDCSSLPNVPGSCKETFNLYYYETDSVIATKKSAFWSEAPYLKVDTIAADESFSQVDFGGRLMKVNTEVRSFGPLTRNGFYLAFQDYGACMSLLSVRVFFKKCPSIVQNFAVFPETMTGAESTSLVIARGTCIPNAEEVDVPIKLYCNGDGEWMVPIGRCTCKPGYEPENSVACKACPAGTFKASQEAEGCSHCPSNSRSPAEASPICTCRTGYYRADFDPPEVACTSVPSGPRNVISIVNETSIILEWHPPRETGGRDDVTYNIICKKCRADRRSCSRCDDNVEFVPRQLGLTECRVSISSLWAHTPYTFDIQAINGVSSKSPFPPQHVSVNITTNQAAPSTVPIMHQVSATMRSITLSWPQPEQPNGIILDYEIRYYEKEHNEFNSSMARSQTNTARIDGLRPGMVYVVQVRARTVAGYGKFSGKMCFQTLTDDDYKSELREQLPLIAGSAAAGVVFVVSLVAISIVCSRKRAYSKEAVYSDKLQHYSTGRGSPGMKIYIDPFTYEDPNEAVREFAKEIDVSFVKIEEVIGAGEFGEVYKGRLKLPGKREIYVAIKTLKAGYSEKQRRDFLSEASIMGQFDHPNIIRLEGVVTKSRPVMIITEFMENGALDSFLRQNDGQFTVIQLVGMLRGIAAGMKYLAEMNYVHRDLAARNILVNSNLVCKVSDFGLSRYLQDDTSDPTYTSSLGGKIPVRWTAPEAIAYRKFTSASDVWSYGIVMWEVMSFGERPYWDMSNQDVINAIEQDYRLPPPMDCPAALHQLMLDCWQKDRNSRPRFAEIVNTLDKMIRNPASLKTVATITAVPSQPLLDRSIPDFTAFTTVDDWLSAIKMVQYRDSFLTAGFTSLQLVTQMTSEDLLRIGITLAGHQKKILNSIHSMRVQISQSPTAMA
Assay: phosphorylation enrichment, bacterial display (enrichment ratio); higher = better substrate or ligand; peptides without Tyr show the background
We use 0.4 as the dividing line for phosphorylation enrichment: on or above the line is Met, below is Not met.

Below, 5 sequences whose answers are already recorded.
QKINKYLTVPA [SLC9A1_Y683_N682K]; Not met
FAKTQYPDIFA [CRX_Y63_V66I_YF]; Met
KKCTRYIDCAL [ASPA_Y64_D68A]; Not met
CTHDLYMIMRE [FGFR3_Y724]; Met
SMGMKYLEEKN [ZAP70_Y451]; Met

Form field: phosphorylation enrichment at least 0.4? Entry: FQSKHYACIRQ [TIMP3_Y182_YF]
Met

Form field: phosphorylation enrichment at least 0.4? Entry: KPMDTYFDSTR [DYNC2H1_Y2230_YF]
Met

---

Molecular target: Grb2 SH2 (UniProt P62993)
Sequence (P62993 whole entry, looked up): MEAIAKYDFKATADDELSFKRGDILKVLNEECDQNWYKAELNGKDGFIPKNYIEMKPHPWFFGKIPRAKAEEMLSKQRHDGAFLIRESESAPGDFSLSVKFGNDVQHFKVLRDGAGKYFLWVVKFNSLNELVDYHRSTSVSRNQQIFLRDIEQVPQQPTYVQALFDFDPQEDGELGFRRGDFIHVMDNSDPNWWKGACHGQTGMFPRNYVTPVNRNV
Assay: SH2 binding enrichment of the phosphorylated peptide, bacterial display (enrichment ratio); higher = better substrate or ligand; peptides without Tyr show the background
We use 0.8 as the dividing line for SH2 binding enrichment: on or above the line is MET, below is NOT MET.

Below, 3 sequences whose answers are already recorded.
FRARAYGFRGP [CHGA_Y381]; NOT MET
DEEDFYQGSME [ASCC1_Y36]; NOT MET
WPLKWYAPECI [ZAP70_Y506]; MET

Form field: SH2 binding enrichment at least 0.8? Entry: RALLNYIASKY [GSTA3_Y74_I71L]
MET

Form field: SH2 binding enrichment at least 0.8? Entry: RFLRGYQQDAY [HLA-A_Y137_R138Q]
NOT MET

Form field: SH2 binding enrichment at least 0.8? Entry: LLSVAYKNVVR [YWHAZ_Y48_G53R]
MET

Form field: SH2 binding enrichment at least 0.8? Entry: EYFDGYWEYSV [ITGA2B_Y265_G267E]
MET
